biological target: Solute carrier family 22 member 2 (Homo sapiens); experiment: Inhibition of human OCT2-mediated ASP+ uptake expressed in HEK293 cells after 3 mins by fluorescence assay
Sequence (O15244 whole entry): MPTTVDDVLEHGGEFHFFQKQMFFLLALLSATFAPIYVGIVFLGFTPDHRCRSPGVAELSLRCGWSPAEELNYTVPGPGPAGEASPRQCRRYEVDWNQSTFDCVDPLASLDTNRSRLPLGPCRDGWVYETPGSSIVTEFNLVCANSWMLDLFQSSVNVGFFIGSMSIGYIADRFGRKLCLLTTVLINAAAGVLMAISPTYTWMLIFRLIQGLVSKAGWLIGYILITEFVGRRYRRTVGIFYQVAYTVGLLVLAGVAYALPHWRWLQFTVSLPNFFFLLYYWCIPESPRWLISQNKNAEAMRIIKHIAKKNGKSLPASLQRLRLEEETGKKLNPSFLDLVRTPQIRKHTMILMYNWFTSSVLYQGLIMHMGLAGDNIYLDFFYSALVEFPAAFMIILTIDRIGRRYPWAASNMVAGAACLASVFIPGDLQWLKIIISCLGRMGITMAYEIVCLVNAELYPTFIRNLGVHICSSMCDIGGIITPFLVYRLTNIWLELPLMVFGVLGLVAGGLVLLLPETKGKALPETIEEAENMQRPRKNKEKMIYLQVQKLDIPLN
So basically, if IC50 comes in under 3 µM it's Fulfilled, and if it's 3 µM or more it's Not fulfilled.

>  <Compound>
COc1cc(C(=O)NS(=O)(=O)c2ccccc2C)ccc1Cc1cn(C)c2ccc(NC(=O)OC3CCCC3)cc12

>  <Discrete label>
Not fulfilled

$$$$
>  <Compound>
O=C1c2c(O)ccc(O)c2C(=O)c2c(NCCNCCO)ccc(NCCNCCO)c21

>  <Discrete label>
Not fulfilled

$$$$
>  <Compound>
NC(N)=Nc1nc(CSCCC(N)=NS(N)(=O)=O)cs1

>  <Discrete label>
Not fulfilled

$$$$
>  <Compound>
CCc1c2c(nc3ccc(OC(=O)N4CCC(N5CCCCC5)CC4)cc13)-c1cc3c(c(=O)n1C2)COC(=O)[C@]3(O)CC

>  <Discrete label>
Fulfilled

$$$$
>  <Compound>
Oc1c(Cl)cc(Cl)cc1Sc1cc(Cl)cc(Cl)c1O

>  <Discrete label>
Fulfilled

$$$$
>  <Compound>
O=c1[nH]c2ccccc2n1CCCN1CCC(n2c(=O)[nH]c3cc(Cl)ccc32)CC1

>  <Discrete label>
Not fulfilled

$$$$
>  <Compound>
N=C(N)c1ccc(OCCCCCOc2ccc(C(=N)N)cc2)cc1

>  <Discrete label>
Fulfilled

$$$$
>  <Compound>
[H]/N=C(/N)c1ccc(NCc2nc3cc(C(=O)N(CCC(=O)O)c4ccccn4)ccc3n2C)cc1

>  <Discrete label>
Not fulfilled

$$$$
>  <Compound>
CN1C2CCCC1CC(NC(=O)c1nn(C)c3ccccc13)C2 (stereo unspecified)

>  <Discrete label>
Not fulfilled

$$$$
>  <Compound>
Cn1c(NCCN(CCO)CCCc2ccc([N+](=O)[O-])cc2)cc(=O)n(C)c1=O

>  <Discrete label>
Not fulfilled

$$$$
>  <Compound>
O=c1[nH]c2ccccc2n1C1CCN(CCCC(c2ccc(F)cc2)c2ccc(F)cc2)CC1 [PIMOZIDE]

>  <Discrete label>
Not fulfilled

$$$$
>  <Compound>
CC(=O)O[C@H]1C[C@@H]2CC[C@@H]3[C@H](CC[C@@]4(C)[C@H]3C[C@H]([N+]3(C)CCCCC3)[C@@H]4OC(C)=O)[C@@]2(C)C[C@@H]1N1CCCCC1.[Br-] [VECURONIUM BROMIDE]

>  <Discrete label>
Not fulfilled

$$$$
>  <Compound>
COc1cc2c3cc1Oc1cc(ccc1O)C[C@@H]1c4c(cc(OC)c(O)c4Oc4ccc(cc4)C[C@@H]3N(C)CC2)CC[N+]1(C)C

>  <Discrete label>
Not fulfilled

$$$$
>  <Compound>
CC(C)(C)NC(=O)[C@@H]1CN(Cc2cccnc2)CCN1C[C@@H](O)C[C@@H](Cc1ccccc1)C(=O)N[C@H]1c2ccccc2C[C@H]1O

>  <Discrete label>
Not fulfilled

$$$$
>  <Compound>
COc1ccccc1OCCNCC(O)COc1cccc2[nH]c3ccccc3c12 (stereo unspecified)

>  <Discrete label>
Not fulfilled

$$$$
>  <Compound>
CCOC(=O)c1ccc(OC(=O)CCCCCNC(=N)N)cc1 [GABEXATE]

>  <Discrete label>
Fulfilled

$$$$
>  <Compound>
C#C[C@]1(O)CC[C@H]2[C@@H]3CCc4cc(O)ccc4[C@H]3CC[C@@]21C

>  <Discrete label>
Fulfilled

$$$$
>  <Compound>
CC[C@@]1(O)C(=O)OCc2c1cc1n(c2=O)Cc2cc3c(CN(C)C)c(O)ccc3nc2-1

>  <Discrete label>
Not fulfilled

$$$$
>  <Compound>
CN1C[C@H](C(=O)N[C@]2(C)O[C@@]3(O)[C@@H]4CCCN4C(=O)[C@H](Cc4ccccc4)N3C2=O)C[C@@H]2c3cccc4[nH]cc(c34)C[C@H]21 [DIHYDROERGOTAMINE]

>  <Discrete label>
Not fulfilled

$$$$
>  <Compound>
O=C1CC2(CCCC2)CC(=O)N1CCCCN1CCN(c2ncccn2)CC1

>  <Discrete label>
Not fulfilled

$$$$
>  <Compound>
CC(N)C12CC3CC(CC(C3)C1)C2 (stereo unspecified)

>  <Discrete label>
Not fulfilled

$$$$
>  <Compound>
COc1ccc2c(c1OC)C(=O)O[C@@H]2[C@H]1c2c(cc3c(c2OC)OCO3)CCN1C

>  <Discrete label>
Fulfilled

$$$$
>  <Compound>
CN(C)C(=O)COC(=O)Cc1ccc(OC(=O)c2ccc(NC(=N)N)cc2)cc1

>  <Discrete label>
Not fulfilled

$$$$
>  <Compound>
NC1=NCC2c3ccccc3Cc3ccccc3N12 (stereo unspecified) [EPINASTINE]

>  <Discrete label>
Not fulfilled

$$$$
>  <Compound>
COc1ccnc(C[S+]([O-])c2nc3ccc(OC(F)F)cc3[nH]2)c1OC (stereo unspecified)

>  <Discrete label>
Fulfilled

$$$$
>  <Compound>
[H]/N=C(\N/C(=N/[H])NCCCCCCNC(=N)NC(=N)Nc1ccc(Cl)cc1)Nc1ccc(Cl)cc1

>  <Discrete label>
Fulfilled

$$$$

* * *

target: Solute carrier family 22 member 3 (Homo sapiens, UniProt O75751); assay: Inhibition of human OCT3-mediated ASP+ uptake expressed in HEK293 cells after 3 mins by fluorescence assay
Sequence (O75751 whole entry): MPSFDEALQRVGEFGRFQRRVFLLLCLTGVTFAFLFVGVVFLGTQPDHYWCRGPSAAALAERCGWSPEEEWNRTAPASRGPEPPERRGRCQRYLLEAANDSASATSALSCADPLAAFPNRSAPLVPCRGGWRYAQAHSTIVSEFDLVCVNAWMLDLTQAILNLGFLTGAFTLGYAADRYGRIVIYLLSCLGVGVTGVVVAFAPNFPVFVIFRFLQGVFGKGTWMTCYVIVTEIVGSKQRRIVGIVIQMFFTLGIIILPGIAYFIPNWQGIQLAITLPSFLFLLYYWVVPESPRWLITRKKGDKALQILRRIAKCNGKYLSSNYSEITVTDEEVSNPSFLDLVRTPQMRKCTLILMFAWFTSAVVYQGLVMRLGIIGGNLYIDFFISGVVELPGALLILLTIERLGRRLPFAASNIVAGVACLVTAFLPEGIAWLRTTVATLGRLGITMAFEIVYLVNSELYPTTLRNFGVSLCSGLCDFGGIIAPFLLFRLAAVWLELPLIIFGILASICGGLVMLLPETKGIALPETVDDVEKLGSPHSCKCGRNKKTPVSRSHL
Catalogue of IC50 readings, one per entry.
Observed property: IC50 (µM)

>  <Compound smiles>
[H]/N=C(\N/C(=N/[H])NCCCCCCNC(=N)NC(=N)Nc1ccc(Cl)cc1)Nc1ccc(Cl)cc1

>  <Target entity>
Solute carrier family 22 member 3 (Homo sapiens, UniProt O75751)

>  <Observed property>
IC50

>  <Modifier sign>
=

>  <Observed value>
0.41

$$$$
>  <Compound smiles>
Oc1c(Cl)cc(Cl)cc1Sc1cc(Cl)cc(Cl)c1O

>  <Target entity>
Solute carrier family 22 member 3 (Homo sapiens, UniProt O75751)

>  <Observed property>
IC50

>  <Modifier sign>
=

>  <Observed value>
5.5

$$$$
>  <Compound smiles>
O=C1c2c(O)ccc(O)c2C(=O)c2c(NCCNCCO)ccc(NCCNCCO)c21

>  <Target entity>
Solute carrier family 22 member 3 (Homo sapiens, UniProt O75751)

>  <Observed property>
IC50

>  <Modifier sign>
=

>  <Observed value>
60.5

$$$$
>  <Compound smiles>
CC(C)(C)NC(=O)[C@@H]1CN(Cc2cccnc2)CCN1C[C@@H](O)C[C@@H](Cc1ccccc1)C(=O)N[C@H]1c2ccccc2C[C@H]1O

>  <Target entity>
Solute carrier family 22 member 3 (Homo sapiens, UniProt O75751)

>  <Observed property>
IC50

>  <Modifier sign>
>

>  <Observed value>
500

$$$$
>  <Compound smiles>
CCc1c2c(nc3ccc(OC(=O)N4CCC(N5CCCCC5)CC4)cc13)-c1cc3c(c(=O)n1C2)COC(=O)[C@]3(O)CC

>  <Target entity>
Solute carrier family 22 member 3 (Homo sapiens, UniProt O75751)

>  <Observed property>
IC50

>  <Modifier sign>
=

>  <Observed value>
74.6

$$$$

* * *

biological target: MATE1 (multidrug and toxin extrusion protein 1) (Homo sapiens); test: Inhibition of human MATE1-mediated ASP+ uptake expressed in HEK293 cells at 20 uM after 1.5 mins by fluorescence assay; type: cell-based; details: HEK293 cells expressing human MATE1, probe ASP+
Sequence (Q96FL8 whole entry): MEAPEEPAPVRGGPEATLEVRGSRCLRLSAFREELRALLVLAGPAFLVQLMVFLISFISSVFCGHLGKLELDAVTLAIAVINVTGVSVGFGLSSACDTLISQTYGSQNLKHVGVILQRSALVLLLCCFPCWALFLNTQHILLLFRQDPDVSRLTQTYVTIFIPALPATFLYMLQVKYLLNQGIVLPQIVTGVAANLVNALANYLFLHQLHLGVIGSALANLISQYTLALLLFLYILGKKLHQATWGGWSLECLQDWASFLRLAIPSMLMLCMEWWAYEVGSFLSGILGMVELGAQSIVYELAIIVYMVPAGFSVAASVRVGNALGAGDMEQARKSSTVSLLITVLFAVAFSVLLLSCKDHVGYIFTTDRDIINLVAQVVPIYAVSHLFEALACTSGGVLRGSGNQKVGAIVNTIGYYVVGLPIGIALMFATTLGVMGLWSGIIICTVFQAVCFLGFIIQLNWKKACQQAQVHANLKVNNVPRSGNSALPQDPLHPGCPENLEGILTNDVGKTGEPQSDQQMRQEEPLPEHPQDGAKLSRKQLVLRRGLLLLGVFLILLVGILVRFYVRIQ
Outcome: TRUE for inhibition at […], 20 µM of at least 10%; FALSE for anything lower.

>  <Compound smiles>
CCCc1nc2c(C)cc(-c3nc4ccccc4n3C)cc2n1Cc1ccc(-c2ccccc2C(=O)O)cc1

>  <Target entity>
MATE1 (multidrug and toxin extrusion protein 1) (Homo sapiens)

>  <Discrete label>
TRUE

$$$$
>  <Compound smiles>
O=C(O)c1cccnc1

>  <Target entity>
MATE1 (multidrug and toxin extrusion protein 1) (Homo sapiens)

>  <Discrete label>
TRUE

$$$$
>  <Compound smiles>
CCCCc1nc(Cl)c(CO)n1Cc1ccc(-c2ccccc2-c2nn[nH]n2)cc1

>  <Target entity>
MATE1 (multidrug and toxin extrusion protein 1) (Homo sapiens)

>  <Discrete label>
TRUE

$$$$
>  <Compound smiles>
CCOc1ccc(NC(C)=O)cc1

>  <Target entity>
MATE1 (multidrug and toxin extrusion protein 1) (Homo sapiens)

>  <Discrete label>
TRUE

$$$$
>  <Compound smiles>
Nc1ncn([C@@H]2O[C@H](CO)[C@@H](O)[C@H]2O)c(=O)n1

>  <Target entity>
MATE1 (multidrug and toxin extrusion protein 1) (Homo sapiens)

>  <Discrete label>
TRUE

$$$$
>  <Compound smiles>
CCc1c2c(nc3ccc(OC(=O)N4CCC(N5CCCCC5)CC4)cc13)-c1cc3c(c(=O)n1C2)COC(=O)[C@]3(O)CC

>  <Target entity>
MATE1 (multidrug and toxin extrusion protein 1) (Homo sapiens)

>  <Discrete label>
TRUE

$$$$
>  <Compound smiles>
CNS(=O)(=O)Cc1ccc2[nH]cc(CCN(C)C)c2c1

>  <Target entity>
MATE1 (multidrug and toxin extrusion protein 1) (Homo sapiens)

>  <Discrete label>
FALSE

$$$$
>  <Compound smiles>
Clc1cccc(Cl)c1N=C1NCCN1

>  <Target entity>
MATE1 (multidrug and toxin extrusion protein 1) (Homo sapiens)

>  <Discrete label>
FALSE

$$$$
